Read-out: Vascular cell adhesion molecule 1 (VCAM1), VCAM1 (gene 7412)
TEST_SUMMARY: BSK_CASM3C_VCAM1: BioMAP Diversity Plus: CASM3C Assay for Vascular cell adhesion molecule 1 (VCAM1) Biomarker Activity (AID 2283055);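 note: VCAM-1 protein level quantified by ELISA on the cells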
EXPERIMENTAL_CONDITIONS: primary human coronary artery smooth muscle cells; actives raise or lower the signal
Activity calls are given as the source filed them. Rule for the calls: active = hit-call score of the fitted dose curve at least 0.9, where 1 is the maximum; inactive = score below 0.9.
Assign a class; possible classes are Y for active, N for inactive

entry_smiles=CCCCCCCCC(=O)NCc1ccc(O)c(OC)c1 cat=N
entry_smiles=CN(C)N=O cat=N
entry_smiles=Cc1ccccc1N cat=N
entry_smiles=CCCCCCCCc1ccc(O)cc1 cat=Y
entry_smiles=C[C@]12CCC(=O)C[C@@H]1CC[C@@H]1[C@@H]2CC[C@]2(C)[C@@H](O)CC[C@@H]12 cat=N
entry_smiles=Nc1cccc2ccccc12 cat=N

Input: Kindly provide the recorded test outcome for the following molecule: CCNc1nc(NC(C)(C)C)nc(SC)n1
Output: N

Input: Kindly provide the recorded test outcome for the following molecule: COc1cc(OC)nc(NC(=O)NS(=O)(=O)c2ncccc2C(=O)N(C)C)n1
Output: N

Input: Kindly provide the recorded test outcome for the following molecule: COC(=O)c1sccc1S(=O)(=O)NC(=O)Nc1nc(C)nc(OC)n1
Output: N

* * *

TEST_SUMMARY: BSK_hDFCGF_Proliferation: Cell Proliferation Assessment in the BioMAP Diversity Plus: hDFCGF Assay (AID 2283059);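 note: curves fitted for both rise and fall of signal versus DMSO baseline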
EXPERIMENTAL_CONDITIONS: primary human foreskin fibroblasts
Activity calls are given as the source filed them. Rule for the calls: active = hit-call score of the fitted dose curve at least 0.9, where 1 is the maximum; inactive = score below 0.9.
Assign a class; possible classes are T = active, F = inactive

compound=Oc1ccc(-c2ccccc2)cc1 cat=F
compound=ClCC(Cl)CCl cat=F
compound=O=c1[nH]c(=O)[nH]c(=O)[nH]1 cat=F
compound=CC(C)(C)CC(C)(C)c1ccc(O)cc1 cat=T
compound=C(=NC1CCCCC1)=NC1CCCCC1 cat=T

Input: Kindly provide the recorded test outcome for the following compound: CCC(C)(C)c1ccc(O)c(C(C)(C)CC)c1
Output: T

Input: Kindly provide the recorded test outcome for the following compound: Cn1sc(Cl)cc1=O
Output: T

* * *

TEST_SUMMARY: ATG_NFI_CIS: Attagene CIS-FACTORIAL HepG2 Assay for human Nuclear Factor I (NFI) (AID 2282989)
EXPERIMENTAL_CONDITIONS: HepG2 cis-regulatory reporter, NFI response element transcription; actives raise or lower the signal
Calls of active or inactive are those of the source. How the source made its calls: active means hit-call score of the fitted dose curve at least 0.9, where 1 is the maximum; inactive means score below 0.9.
Assign a class; possible classes are active, inactive

Observe how each entry below is paired with its result.
compound=O=Cc1cccc(Oc2ccccc2)c1 cat=inactive
compound="CC1(C)CCC(Cc2ccc(Cl)cc2)C1(O)Cn1cncn1 (configuration not stated)" cat=inactive
compound=c1ccc(N=NNc2ccccc2)cc1 cat=active
compound=C=CC#N cat=inactive

Input: Kindly provide the recorded test outcome for the following compound: Fc1ccc(C2(Cn3cncn3)OC2c2ccccc2Cl)cc1 (configuration not stated)
Output: inactive

Input: Kindly provide the recorded test outcome for the following compound: N#CCc1ccc(Cl)cc1
Output: inactive

Input: Kindly provide the recorded test outcome for the following compound: ClCC(Cl)CCl
Output: inactive

* * *

TEST_SUMMARY: TOX21_p53_BLA_p3_viability: Viability Assessment in the Tox21 HCT-116 p53 Agonism Beta-lactamase Assay, Phase 3 (AID 2283593);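 note: cells exposed to compound for 16 h before reading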
Results filed as inconclusive are left out. The source made the active and inactive calls. The calls were made as follows: active = hit-call score of the fitted dose curve at least 0.9, where 1 is the maximum; inconclusive = response in the unintended direction; inactive = score below 0.9.
MEASURED_METRIC: AC50

Known AC50 results, listed for orientation:
molecule=Cc1ccccc1C(=O)Nc1cccc(OC(C)C)c1 measured_metric=AC50 experimental_value=inactive
molecule=Cl/C=C/Cl measured_metric=AC50 experimental_value=inactive
molecule=Cc1ccccc1N measured_metric=AC50 experimental_value=inactive
molecule=CCNc1nc(NC(C)(C)C)nc(SC)n1 measured_metric=AC50 experimental_value=inactive
molecule=CCN1CCC2(CC1)COc1cc3c(cc12)N(C(=O)c1ccc(-c2ccc(-c4nnc(C)o4)cc2C)cc1)CC3 measured_metric=AC50 experimental_value="67.5 µM (active)"

Input: Can you share its AC50? I mean this molecule: CCC[CH2][Sn]([CH2]CCC)([CH2]CCC)[O]C(=O)c1ccccc1
Output: 2.09 µM (active)

Input: Can you share its AC50? I mean this molecule: OCC(O)CCl (stereo not drawn)
Output: inactive

Input: Can you share its AC50? I mean this molecule: Clc1ccc(C2(Cn3cncn3)CC(Br)CO2)c(Cl)c1 (stereo not drawn)
Output: inactive
